- Test system: EfPiwi piRISC loaded with L1MC piRNA (26 nt)
- Method Description: pre-steady-state target cleavage rate (min^-1); auxiliary factor: none (no Gtsf1); guide: L1MC piRNA 5'p-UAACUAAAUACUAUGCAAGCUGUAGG; MIWI and MILI are mouse PIWI proteins and EfPiwi is from a freshwater sponge; tags in brackets are library labels; higher = faster piRNA-guided slicing of the target
Reported values of pre-steady-state target cleavage rate for individual entries

Consider the following illustrative entries.
In [3]: df
Out[3]:
            macromolecule_sequence    result
0   UCCUGGUACAGCUUGCAUAGUAUAUACUUA  < 0.0001
1   UCCUGGAUGUCGAACGUUAGUAUUUAGAUA  < 0.0001
2   UCCUGGAACAGCUUGCAUUCUAUUUACAAA  < 0.0001
3   UCCUGGAACAGCUUGCAUCGUAUUUAGUUA   0.00791
4   UCCUGGAUGUCGAAGGAUAGUAUUUAGUUA  < 0.0001
5  UCCUGGAUGAGCUUGCAUAGUACUUUAGUUA   0.00423

Ask | API: value(readout=pre-steady-state target cleavage rate, system=EfPiwi piRISC loaded with L1MC piRNA (26 nt)) for record UCCUGGAUGUCGAACGUAAUGUAUUUAGUUA
Reply | < 0.0001

Ask | What do you get for UCCUGGAUCAGCUUGCAUUGUAUAUAGUUA ?
Reply | < 0.0001

Ask | What do you get for UCCUGCUACAGCUUGCAUAUGUAUUUAGUUA ?
Reply | < 0.0001
